Molecular target: Muscarinic acetylcholine receptor M2 (Homo sapiens) (UniProt P08172)
Sequence (whole entry): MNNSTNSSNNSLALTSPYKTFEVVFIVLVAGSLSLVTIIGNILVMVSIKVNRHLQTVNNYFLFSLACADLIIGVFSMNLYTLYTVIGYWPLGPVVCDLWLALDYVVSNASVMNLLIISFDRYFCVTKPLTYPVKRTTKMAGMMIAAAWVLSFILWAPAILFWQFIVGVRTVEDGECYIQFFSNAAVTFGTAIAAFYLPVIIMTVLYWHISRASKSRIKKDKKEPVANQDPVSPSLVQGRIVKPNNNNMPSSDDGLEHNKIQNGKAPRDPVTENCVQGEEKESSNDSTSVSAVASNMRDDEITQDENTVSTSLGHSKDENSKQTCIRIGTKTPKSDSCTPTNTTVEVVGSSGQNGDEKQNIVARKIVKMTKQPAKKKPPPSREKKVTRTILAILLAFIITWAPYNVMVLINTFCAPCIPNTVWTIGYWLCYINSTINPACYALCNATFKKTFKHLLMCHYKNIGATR
Assay: Ability to displace [3H]N-methylscopolamine binding to M2 human recombinant muscarinic receptor in CHO cells at concentration 1 uM
Assay type: cell-based
Use 10% as the dividing line for inhibition, with the line itself on the y side and lower values as n.

These recorded examples may help you get a feel for the data.
{"compound": "COc1ccc(-c2cc(/C=C3/CN4CCC3C4)on2)cc1 (configuration not stated)", "class-label": "y"}
{"compound": "Nc1ccc(-c2cc(/C=C3\\CN4CCC3CC4)on2)cc1", "class-label": "n"}
{"compound": "Oc1ccc(-c2cc(/C=C3/CN4CCC3C4)on2)cc1 (configuration not stated)", "class-label": "n"}
{"compound": "Oc1ccc(-c2cc(/C=C3/CN4CCC3CC4)on2)cc1O", "class-label": "y"}
{"compound": "Oc1ccc(-c2cc(/C=C3\\CN4CCC3CC4)on2)cc1", "class-label": "n"}
{"compound": "CC(C)(C)OC(=O)Nc1ccc(-c2cc(/C=C3/CN4CCC3CC4)on2)cc1", "class-label": "y"}
{"compound": "Oc1ccc(-c2cc(/C=C3\\CN4CCC3C4)on2)cc1 (configuration not stated)", "class-label": "n"}
{"compound": "COc1ccc(-c2cc(/C=C3\\CN4CCC3C4)on2)cc1 (configuration not stated)", "class-label": "n"}

// switching to the query compound
Incoming: For this compound, is measured inhibition 10% or higher? Oc1ccc(-c2cc(/C=C3\CN4CCC3CC4)on2)cc1O
Outgoing: n

---

molecular target: Muscarinic acetylcholine receptor M2 (Homo sapiens) (UniProt P08172); test: Ability to displace [3H]N-methylscopolamine binding to M2 human recombinant muscarinic receptor in CHO cells at concentration 1 uM; assay type: cell-based
The threshold is inclusive: inhibition of exactly 6% counts as 1; values below receive 0.

Incoming: Does inhibition meet or surpass 6% for Fc1ccc(-c2cc(/C=C3\CN4CCC3CC4)on2)cc1 ?
Outgoing: 1

Incoming: And for Oc1ccc(-c2cc(/C=C3/CN4CCC3CC4)on2)cc1 ?
Outgoing: 0

Incoming: Another: Cc1ccc(-c2cc(/C=C3\CN4CCC3CC4)on2)cc1
Outgoing: 0

---

molecular target: Muscarinic acetylcholine receptor M3 (Homo sapiens) (UniProt P20309); experiment: Ability to displace [3H]N-methylscopolamine binding to M3 human recombinant muscarinic receptor in CHO cells at concentration 1 uM; type: cell-based
Sequence (P20309 whole entry, looked up): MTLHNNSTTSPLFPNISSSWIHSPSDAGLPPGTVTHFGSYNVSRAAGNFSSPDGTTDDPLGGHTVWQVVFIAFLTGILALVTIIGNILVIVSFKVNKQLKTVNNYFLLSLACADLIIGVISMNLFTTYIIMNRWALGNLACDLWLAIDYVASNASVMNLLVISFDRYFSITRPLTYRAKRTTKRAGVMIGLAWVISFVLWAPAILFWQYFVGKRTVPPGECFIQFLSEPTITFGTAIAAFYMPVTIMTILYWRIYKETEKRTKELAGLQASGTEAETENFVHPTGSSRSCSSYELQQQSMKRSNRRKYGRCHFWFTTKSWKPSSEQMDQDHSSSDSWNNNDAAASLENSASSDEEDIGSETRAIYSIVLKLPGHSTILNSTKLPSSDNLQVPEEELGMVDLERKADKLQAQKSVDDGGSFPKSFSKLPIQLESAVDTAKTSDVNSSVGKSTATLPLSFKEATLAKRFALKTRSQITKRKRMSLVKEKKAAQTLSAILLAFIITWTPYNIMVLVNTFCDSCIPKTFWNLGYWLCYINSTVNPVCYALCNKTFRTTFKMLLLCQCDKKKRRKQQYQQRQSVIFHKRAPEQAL
measured-endpoint: inhibition (%)
Numbers only, in %.

Examples from the recorded data:
{"compound": "COc1ccc(COc2ccc(-c3cc(/C=C4\\CN5CCC4CC5)on3)cc2OCc2ccc(OC)cc2)cc1", "measured-endpoint": "inhibition", "number": 76}
{"compound": "COc1ccc(-c2cc(/C=C3/CN4CCC3CC4)on2)cc1", "measured-endpoint": "inhibition", "number": 14}
{"compound": "Oc1ccc(-c2cc(/C=C3/CN4CCC3C4)on2)cc1 (stereo unspecified)", "measured-endpoint": "inhibition", "number": 0}

For every item in the list below, what is its measured inhibition?
1. Cc1ccc(-c2cc(/C=C3/CN4CCC3CC4)on2)cc1
2. CC(C)(C)OC(=O)Nc1ccc(-c2cc(/C=C3\CN4CCC3CC4)on2)cc1
3. N#Cc1ccc(-c2cc(/C=C3\CN4CCC3CC4)on2)cc1

Outgoing:
3
5
9

---

So I've got a bunch of compounds here, and I need their inhibition values.
target: Neuronal acetylcholine receptor (Rattus norvegicus) (UniProt P04757+P09483+P12389+P12390+P12392+P43144+Q9JLB5+P12391+P43143+P20420+Q05941); experiment: Ability to displace [3H]cytisine binding to nicotinic receptor in synaptic membrane fractions from rat cerebral cortices at a concentration of 10 uM.; format: cell membranes
Answers are plain numbers, in %.

In the examples that follow, each entry is paired with its recorded inhibition.
{"compound": "Nc1ccc(-c2cc(/C=C3/CN4CCC3C4)on2)cc1 (stereo unspecified)", "measured-endpoint": "inhibition", "number": 49}
{"compound": "Oc1ccc(-c2cc(/C=C3\\CN4CCC3C4)on2)cc1 (stereo unspecified)", "measured-endpoint": "inhibition", "number": 36}
{"compound": "Oc1ccc(-c2cc(/C=C3\\CN4CCC3CC4)on2)cc1", "measured-endpoint": "inhibition", "number": 72}
{"compound": "COc1ccc(-c2cc(/C=C3/CN4CCC3CC4)on2)cc1", "measured-endpoint": "inhibition", "number": 68}
{"compound": "Cc1ccc(-c2cc(/C=C3\\CN4CCC3CC4)on2)cc1", "measured-endpoint": "inhibition", "number": 26}

List reported inhibition for each of these compounds:
1. CC(C)(C)OC(=O)Nc1ccc(-c2cc(/C=C3/CN4CCC3C4)on2)cc1 (stereo unspecified)
2. Oc1ccc(-c2cc(/C=C3/CN4CCC3C4)on2)cc1O (stereo unspecified)
3. Cc1ccc(-c2cc(/C=C3/CN4CCC3CC4)on2)cc1
4. CC(C)(C)OC(=O)Nc1ccc(-c2cc(/C=C3\CN4CCC3C4)on2)cc1 (stereo unspecified)

Outgoing:
74
64
70
75

# batch size: 2; output inhibition per entry
1. Fc1ccc(-c2cc(/C=C3\CN4CCC3CC4)on2)cc1
2. Oc1ccc(-c2cc(/C=C3/CN4CCC3CC4)on2)cc1

Outgoing:
19
93

---

molecular target: Neuronal acetylcholine receptor (Rattus norvegicus) (UniProt P04757+P09483+P12389+P12390+P12392+P43144+Q9JLB5+P12391+P43143+P20420+Q05941); assay: Ability to displace [3H]cytisine binding to Nicotinic acetylcholine receptor in synaptic membrane fractions from rat cerebral cortices at a concentration of 10 uM.; assay type: cell membranes
measured-endpoint: inhibition (%)
One number for each entry, in %.

{"molecule": "COc1ccc(-c2cc(/C=C3/CN4CCC3C4)on2)cc1 (centres undefined)", "inhibition (%)": 58}
{"molecule": "Nc1ccc(-c2cc(/C=C3\\CN4CCC3CC4)on2)cc1", "inhibition (%)": 77}
{"molecule": "COc1ccc(-c2cc(/C=C3\\CN4CCC3C4)on2)cc1 (centres undefined)", "inhibition (%)": 55}

Next up:
Incoming: Any idea what its inhibition is? The molecule is COc1ccc(COc2ccc(-c3cc(/C=C4\CN5CCC4C5)on3)cc2)cc1 (centres undefined)
Outgoing: 0

---

target: Neuronal acetylcholine receptor; experiment: The compound was tested for its binding affinity against Nicotinic acetylcholine receptor in synaptic membrane fractions from rat cerebral cortices.
measured-endpoint: IC50 (nM)
Answers are plain numbers, in nM.

{"smiles-str": "Oc1ccc(-c2cc(/C=C3/CN4CCC3CC4)on2)cc1O", "target-or-system": "Neuronal acetylcholine receptor", "quantity-unit": "nM", "number": 486}

Could you now consider this next compound?
Incoming: Suppose we examine the compound Nc1ccc(-c2cc(/C=C3/CN4CCC3CC4)on2)cc1 ; what IC50 value has been reported?
Outgoing: 709

---

Field: inhibition. Provide a value for each of the compounds that follow.
target: UniProt:P20309; test: Ability to displace [3H]N-methylscopolamine binding to M3 human recombinant muscarinic receptor in CHO cells at concentration 10 uM; format: cell-based
Numbers only, in %.

Each compound below has a reported value. Please supply its inhibition.
1. COc1ccc(-c2cc(/C=C3\CN4CCC3CC4)on2)cc1OC
2. CC(C)(C)OC(=O)Nc1ccc(-c2cc(/C=C3/CN4CCC3C4)on2)cc1 (stereo unspecified)
3. Oc1ccc(-c2cc(/C=C3/CN4CCC3C4)on2)cc1 (stereo unspecified)
4. COc1ccc(COc2ccc(-c3cc(/C=C4/CN5CCC4CC5)on3)cc2)cc1
5. N#Cc1ccc(-c2cc(/C=C3\CN4CCC3CC4)on2)cc1
6. N#Cc1ccc(-c2cc(/C=C3/CN4CCC3CC4)on2)cc1

Outgoing:
7
35
11
52
31
26
